Please respond with reported viability at 28.5 h, 10 µM for every item in the list.
test: in vitro; parameters: Viability of infected HeLa host cells, resazurin conversion, bulk resorufin fluorescence relative to DMSO; conditions: human, hela cells; bulk resorufin, mean of 2
Numeric only. Scale: %

Query :: State the recorded viability at 28.5 h, 10 µM for this entry: `Cc1ccc(C(=O)NC2CCCC2)cc1[N+](=O)[O-]`
Result :: 104

Query :: State the recorded viability at 28.5 h, 10 µM for this entry: `Cc1cc2nc(-c3ccccn3)[nH]c2cc1C`
Result :: 89.1

Query :: State the recorded viability at 28.5 h, 10 µM for this entry: `Cc1cc(C)nc(NC(=N)NCCc2c[nH]c3ccccc23)n1`
Result :: 81.2

Query :: State the recorded viability at 28.5 h, 10 µM for this entry: NCc1ccc2cccc(O)c2n1 [CBK001376T]
Result :: 110

Query :: State the recorded viability at 28.5 h, 10 µM for this entry: `CC(=O)NC[C@H]1CN(c2ccc(-c3nnc(CCC#N)s3)c(F)c2)C(=O)O1`
Result :: 95.7

Query :: State the recorded viability at 28.5 h, 10 µM for this entry: `O=C(O)/C(=N\c1cccc2ccccc12)c1ccccc1`
Result :: 96

Query :: State the recorded viability at 28.5 h, 10 µM for this entry: `CCOc1ccsc1C(=O)Nc1cc(C)ccn1`
Result :: 71.7

Query :: State the recorded viability at 28.5 h, 10 µM for this entry: COc1cc(CN2CCNCC2)c2ccn(S(=O)(=O)c3cccc(Cl)c3C)c2c1 [CBK144484T]
Result :: 102

Query :: State the recorded viability at 28.5 h, 10 µM for this entry: `Cn1cncc1C(=O)NCc1ccccc1`
Result :: 104

Query :: State the recorded viability at 28.5 h, 10 µM for this entry: CC(Cc1nc(-c2nccn2C(C)C)cs1)n1cc(Cl)cn1 (stereo not shown)
Result :: 92.9

Query :: State the recorded viability at 28.5 h, 10 µM for this entry: `CN(C(=O)Cc1ccsc1)c1nc2c(s1)CCc1c-2cnn1C`
Result :: 93.3

Query :: State the recorded viability at 28.5 h, 10 µM for this entry: `CC(=O)c1cc(-c2cccnc2)cs1`
Result :: 110

Query :: State the recorded viability at 28.5 h, 10 µM for this entry: COc1ccc(CCN(CCc2ccccc2)CC(O)COc2cccc3c2CCCC3)cc1 (stereo not shown) [CBK024506T]
Result :: 101

Query :: State the recorded viability at 28.5 h, 10 µM for this entry: COc1ccc(CC(=O)N2CCCC(c3nc(C)c4c(n3)N(CC3CC3)CCC4)C2)cc1 (stereo not shown)
Result :: 97

Query :: State the recorded viability at 28.5 h, 10 µM for this entry: Cc1ccc(OCC(O)CN2CCN(c3nc(-c4ccccc4)ns3)CC2)c([N+](=O)[O-])c1 (stereo not shown)
Result :: 102

Query :: State the recorded viability at 28.5 h, 10 µM for this entry: `O=C(Nc1ccc(OC(F)(F)F)cc1)Nc1cc(-c2cccs2)n[nH]1`
Result :: 117

Query :: State the recorded viability at 28.5 h, 10 µM for this entry: `O=c1c2cnc3ccnn3c2ccn1C1CCCC1`
Result :: 109

Query :: State the recorded viability at 28.5 h, 10 µM for this entry: CCC(=O)N1CCCc2cc(C(O)CN3CCN(c4ccc(F)cc4)CC3)ccc21 (stereo not shown)
Result :: 90.3

Query :: State the recorded viability at 28.5 h, 10 µM for this entry: CCN(CC)CCNc1nc(-c2cccc(Cl)c2)nc2ccccc12 [CBK267265C]
Result :: 108

Query :: State the recorded viability at 28.5 h, 10 µM for this entry: OCCNc1nc(Nc2ccc(Br)cc2)nc2ccccc12 [CBK266724C]
Result :: 121

Query :: State the recorded viability at 28.5 h, 10 µM for this entry: Cc1csc(SC(C)C(=O)N2CCc3ccccc32)n1 (stereo not shown)
Result :: 89.5

Query :: State the recorded viability at 28.5 h, 10 µM for this entry: COc1ccc(Br)cc1C1CC(=O)Nc2c(-c3cccc(F)c3)csc21 (stereo not shown)
Result :: 95.7

Query :: State the recorded viability at 28.5 h, 10 µM for this entry: NC(Cc1ccccc1)CN(CC1(c2ccc(Cl)cc2)CC1)C(=O)Nc1ccc2c(c1)OCO2 (stereo not shown) [CBK002342C]
Result :: 93.5

Query :: State the recorded viability at 28.5 h, 10 µM for this entry: C[C@@H]1CN(c2ccc(C(F)(F)F)c(OCc3ccccc3)n2)CCN1 [CBK003987A]
Result :: 113

Query :: State the recorded viability at 28.5 h, 10 µM for this entry: CN1CCN(c2ccc3ccn(S(=O)(=O)c4ccc([N+](=O)[O-])cc4)c3n2)CC1 [CBK070757C]
Result :: 86
